Test system: H1299 p53 R273H
assay.procedure: Cell Proliferation Assay (CellTiter-Glo, CTG), H1299 p53 R273H (NClH1299-inducible p53 R273H)
Type: cell-based
conditions.used: Homo sapiens, NCI-H1299, 120 h, CellTiter-Glo, H1299 p53 R273H, 5 days
pIC50: −log10 of the molar value. Where a name gives a salt, the structure may show the parent alone.
outcome.measure: pIC50

>  <molecule>
CNC(=O)c1ccc(OC)c(NCC#Cc2nc3c(N[C@@H]4CCNC[C@@H]4F)cccn3c2SC(F)(F)F)c1 [Example 218]

>  <target.entity>
H1299 p53 R273H

>  <outcome.measure>
pIC50

>  <recorded.result>
≤ 5.00

$$$$
>  <molecule>
CNC(=O)c1ccc(NCC#Cc2nc3c(N[C@H]4C[C@@H]5CC[C@@H](N5)[C@H]4F)cccn3c2SC(F)(F)F)c(OC)c1 [Example 201]

>  <target.entity>
H1299 p53 R273H

>  <outcome.measure>
pIC50

>  <recorded.result>
5.10 to 5.30

$$$$
>  <molecule>
COc1cc(C(=O)N(C)C)ccc1NCC#Cc1nc2c(N[C@@H]3CCN(C)C[C@@H]3F)cccn2c1SC(F)(F)F [Example 88]

>  <target.entity>
H1299 p53 R273H

>  <outcome.measure>
pIC50

>  <recorded.result>
5.00 to 5.10

$$$$
>  <molecule>
CNC(=O)c1ccc(NCC#Cc2nc3c(N[C@@H]4CN(C)C[C@@H]4F)cccn3c2SC(F)(F)F)c(OC)c1 [Example 103]

>  <target.entity>
H1299 p53 R273H

>  <outcome.measure>
pIC50

>  <recorded.result>
≤ 5.00

$$$$

So what does the record say about pIC50 for CNC(=O)c1ccc(NCC#Cc2nc3c(NC4CCN(C)CC4)cc(NC(=O)C(F)Cl)cn3c2CC(F)(F)F)c(OC)c1 (centres unmarked) [Example 43, formic acid salt] ?
≤ 5.00

* * *

target.entity: p53 Y220C (Homo sapiens, UniProt P04637, Y220C)
assay.procedure: Luciferase Reporter Assay (Luc), p53 response element, NClH1299 cells with inducible p53 Y220C
Assay type: cell-based
conditions.used: AC50; luciferase reporter, NClH1299 inducible p53 Y220C, 6 hour; read-out: Luc P53 Y220C AC50
outcome.measure: AC50

Here are 5 compounds together with their reported answers.
>  <smiles.notation>
COc1cc(P(C)(C)=O)ccc1NCC#Cc1cn2c(N[C@@H]3CCN(C)C[C@@H]3F)cccc2c1SC(F)F

>  <AC50>
< 750 nM

$$$$
>  <smiles.notation>
CN1CC[C@@H](Nc2cccn3c(SC(F)(F)F)c(C#CCNc4ccc(S(C)(=O)=O)cc4)cc23)[C@@H](F)C1

>  <AC50>
< 750 nM

$$$$
>  <smiles.notation>
COc1cc(C(N)=O)ccc1NCC#Cc1cc2c(N[C@@H]3CCN(C)C[C@@H]3F)nccn2c1SC(F)(F)F

>  <AC50>
< 750 nM

$$$$
>  <smiles.notation>
CCNC(=O)c1cnc(OC)c(NCC#Cc2nc3c(N[C@@H]4CCN(C)C[C@@H]4F)cccn3c2SC(F)(F)F)c1

>  <AC50>
< 750 nM

$$$$
>  <smiles.notation>
CNC(=O)c1ccc(OC)c(NCC#Cc2nc3c(N[C@@H]4[C@@H]5CC[C@H]4NC5)cccn3c2SC(F)(F)F)c1

>  <AC50>
1500 to 3000 nM

$$$$

Proceeding to the next compound to report its AC50.
Request the reported AC50 associated with CNC(=O)c1ccc(NCC#Cc2cc3c(N[C@@H]4CCNC[C@@H]4F)cccn3c2SC(F)(F)F)c(OC2COC2)c1
< 750 nM

* * *

target.entity: p53 Y220C (Homo sapiens, UniProt P04637, Y220C)
assay.procedure: Luciferase Reporter Assay (Luc), p53 response element, NClH1299 cells with inducible p53 Y220C
Format: cell-based
conditions.used: luciferase reporter, NClH1299 inducible p53 Y220C, 6 hour; read-out: Luc P53 Y220C AC50
molecules and their reported AC50

Solved entries (count: 8):
>  <smiles.notation>
COc1cc(S(=O)(=O)C(C)C)ccc1NCC#Cc1nc2c(N[C@@H]3CCN(C)C[C@@H]3F)cccn2c1CC(F)(F)F

>  <target.entity>
p53 Y220C (Homo sapiens, UniProt P04637, Y220C)

>  <AC50>
< 0.75 µM

$$$$
>  <smiles.notation>
CNC(=O)c1ccc(NCC#Cc2nc3c(N[C@@H]4CCN(C)C[C@@H]4F)cccn3c2CC(F)(F)F)c(C(F)(F)F)c1

>  <target.entity>
p53 Y220C (Homo sapiens, UniProt P04637, Y220C)

>  <AC50>
> 3 µM

$$$$
>  <smiles.notation>
CNC(=O)c1ccc(NCC#Cc2nc3c(N[C@H]4C[C@@H]5CC[C@H]([C@H]4F)N5C)cccn3c2SC(F)(F)F)c(OC)c1

>  <target.entity>
p53 Y220C (Homo sapiens, UniProt P04637, Y220C)

>  <AC50>
< 0.75 µM

$$$$
>  <smiles.notation>
COc1cc(S(C)(=O)=O)ccc1NCC#Cc1nc2c(NC3CC4(C3)CN(C)C4)cccn2c1CC(F)(F)F

>  <target.entity>
p53 Y220C (Homo sapiens, UniProt P04637, Y220C)

>  <AC50>
> 3 µM

$$$$
>  <smiles.notation>
CNC(=O)c1ccc(OC)c(NCC#Cc2cc3c(N[C@@H]4CN(C)C[C@@H]4F)nccn3c2SC(F)(F)F)n1

>  <target.entity>
p53 Y220C (Homo sapiens, UniProt P04637, Y220C)

>  <AC50>
< 0.75 µM

$$$$
>  <smiles.notation>
CC#Cc1nc2c(N[C@@H]3CCN(C)C[C@@H]3F)cccn2c1CC(F)(F)F

>  <target.entity>
p53 Y220C (Homo sapiens, UniProt P04637, Y220C)

>  <AC50>
> 3 µM

$$$$
>  <smiles.notation>
COc1cc(C(=O)NC(C)C)ccc1NCC#Cc1nc2c(N[C@@H]3CCN(C)C[C@@H]3F)cccn2c1CC(F)(F)F

>  <target.entity>
p53 Y220C (Homo sapiens, UniProt P04637, Y220C)

>  <AC50>
0.75 to 1.5 µM

$$$$
>  <smiles.notation>
CNC(=O)c1ccc(OC)c(NCC#Cc2nc3c(N[C@@H]4CCN(C)C[C@@H]4F)cccn3c2CC(F)(F)F)n1

>  <target.entity>
p53 Y220C (Homo sapiens, UniProt P04637, Y220C)

>  <AC50>
< 0.75 µM

$$$$

Find the recorded AC50 belonging to CNC(=O)c1ccc(NCC#Cc2nc3c(N[C@@H]4CCN(C)C[C@@H]4F)cccn3c2C2CC2)c(OC)c1 and report it.
> 3 µM

# lookup: AC50 of CNC(=O)c1cnc(OC)c(NCC#Cc2nc3c(N[C@@H]4CCN(C)C[C@@H]4F)cccn3c2SC(F)(F)F)n1
< 0.75 µM

For the molecule CNC(=O)c1ccc(NCC#Cc2nc3c(N[C@@H]4CCNC[C@@H]4F)cccn3c2SC(F)(F)F)c(OC)c1 , what AC50 is on record?
< 0.75 µM

Return reported AC50; argument: CCS(=O)(=O)c1ccc(NCC#Cc2nc3c(N[C@@H]4CCN(C)C[C@@H]4F)cccn3c2CC(F)(F)F)c(OC)c1
< 0.75 µM

# lookup: AC50 of COc1cc(S(C)(=O)=O)ccc1NCC#Cc1nc2c(N[C@H]3CCN(C)C[C@H]3F)cccn2c1CC(F)(F)F
1.5 to 3 µM

* * *

System: H1299 p53 Y220C
assay.procedure: Cell Proliferation Assay (CellTiter-Glo, CTG), H1299 p53 Y220C (NClH1299-inducible p53 Y220C)
Type: cell-based
conditions.used: Homo sapiens, NCI-H1299, 120 h, CellTiter-Glo, H1299 p53 Y220C, 5 days
Entries and their IC50

Solved entries (count: 5):
>  <molecule>
CNC(=O)c1ccc(NCC#Cc2nc3c(N[C@H]4CCC(=O)NC4)cccn3c2SC(F)(F)F)c(OC)c1 [Example 183]

>  <recorded.result>
1500 to 3000 nM

$$$$
>  <molecule>
CNC(=O)c1cnc(OC)c(NCC#Cc2nc3c(N[C@@H]4CCN(C)C[C@@H]4F)cccn3c2SC(F)(F)F)c1 [Example 141]

>  <recorded.result>
< 750 nM

$$$$
>  <molecule>
CNC(=O)c1ccc(NCC#Cc2nc3c(N[C@@H]4CCN(C)C[C@@H]4F)cccn3c2CC(F)(F)F)cc1 [Example 35]

>  <recorded.result>
1500 to 3000 nM

$$$$
>  <molecule>
CNC(=O)c1ccc(NCC#Cc2nn3c(N[C@@H]4CCN(C)C[C@@H]4F)ccnc3c2SC(F)(F)F)c(OC)c1 [Example 205]

>  <recorded.result>
> 3000 nM

$$$$
>  <molecule>
CC#Cc1nc2c(NC3CCN(C)CC3)cccn2c1CC(F)(F)F [Example 19]

>  <recorded.result>
> 3000 nM

$$$$

Item: CNC(=O)c1ccc(OC)c(NCC#Cc2nc3c(N[C@H]4C[C@@H]5CC[C@@H](N5)[C@H]4F)cccn3c2SC(F)(F)F)c1 [Example 203] Test system: H1299 p53 Y220C Read-out: IC50 Value: ?
< 750 nM
